# TARGET OR TEST SYSTEM: human recombinant B-Raf protein (Homo sapiens, UniProt P15056)
# Construct: made in house; host or cells: Sf9 insect cells (baculovirus)
# Sequence (P15056 whole entry): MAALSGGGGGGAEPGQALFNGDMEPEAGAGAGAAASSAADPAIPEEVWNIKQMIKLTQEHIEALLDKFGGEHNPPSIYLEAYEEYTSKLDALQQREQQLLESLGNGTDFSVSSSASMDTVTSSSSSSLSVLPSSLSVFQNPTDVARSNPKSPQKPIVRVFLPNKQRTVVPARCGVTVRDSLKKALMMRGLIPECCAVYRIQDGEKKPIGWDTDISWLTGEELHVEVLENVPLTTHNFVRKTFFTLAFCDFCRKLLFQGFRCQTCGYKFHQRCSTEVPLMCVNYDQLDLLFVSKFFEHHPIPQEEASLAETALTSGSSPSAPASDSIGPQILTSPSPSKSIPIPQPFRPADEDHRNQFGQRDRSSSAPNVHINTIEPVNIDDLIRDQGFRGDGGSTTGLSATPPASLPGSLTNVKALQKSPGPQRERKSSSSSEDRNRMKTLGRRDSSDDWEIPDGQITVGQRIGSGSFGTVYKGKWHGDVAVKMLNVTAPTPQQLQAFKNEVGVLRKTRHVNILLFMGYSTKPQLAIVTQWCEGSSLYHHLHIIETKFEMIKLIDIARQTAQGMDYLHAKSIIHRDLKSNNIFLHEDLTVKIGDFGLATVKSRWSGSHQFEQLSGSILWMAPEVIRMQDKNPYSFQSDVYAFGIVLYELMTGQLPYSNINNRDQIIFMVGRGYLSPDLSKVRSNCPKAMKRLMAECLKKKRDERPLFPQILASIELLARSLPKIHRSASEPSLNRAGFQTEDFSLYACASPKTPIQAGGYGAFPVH
# TEST DETAILS: Raf Kinase Assay (Assay 1): incorporation of radiolabelled phosphate into GST-kdMEK
# Assay type: biochemical
# STUDY CONDITIONS: head: Assay 1
TEST READOUT: Kd (nM)

| SMILES ENTRY | TEST READOUT | MEASURED RESULT |
| --- | --- | --- |
| O=S1(=O)CCN(Cc2cc(-c3ccc4c(c3)CCC4=NO)c(-c3ccncc3)o2)CC1 | Kd | 3.6 |
